Assign -TdeltaS to each entry below.
system under test: Matrix protein 2 (Influenza A virus)
test: Binding affinity to C-terminal amidated influenza A virus A/Udorn/72 (H3N2) M2 transmembrane domain (22 to 46 residues) in DPC micelles at pH 8 assessed as change in entropy by ITC analysis
API: value field is a number in kcal/mol; no unit string.

Quick note, -TdeltaS for C[C@H](N)C12CC3CC(CC(C3)C1)C2 landed at -1.15

Quick note, -TdeltaS for C[C@@H](N)C12CC3CC(CC(C3)C1)C2 landed at -1.42

Quick note, -TdeltaS for NC12CC3CC(CC(C3)C1)C2 [AMANTADINE] landed at -1.11

Quick note, -TdeltaS for CC(N)C12CC3CC(CC(C3)C1)C2 (racemic) [RIMANTADINE] landed at -1.04

Quick note, -TdeltaS for CC(C)(N)C12CC3CC(CC(C3)C1)C2 landed at -5.12

* * *

system under test: UniProt P06821
Sequence (P06821 whole entry): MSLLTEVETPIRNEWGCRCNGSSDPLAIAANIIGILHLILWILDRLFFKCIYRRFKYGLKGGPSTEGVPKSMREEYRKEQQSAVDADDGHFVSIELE
test: Inhibition of full length influenza A virus A/Udorn/72 (H3N2) M2 expressed in Xenopus laevis oocytes assessed as inhibition of channel current at 100 uM measured after 5 mins by two-electrode voltage clamp assay relative to control
Assay type: cell-based
measurement parameters: Oocyte
Assign inhibition to each entry below.
API: value field is a number in %; no unit string.

Quick note, inhibition for C[C@H](N)C12CC3CC(CC(C3)C1)C2 landed at 96

Quick note, inhibition for C[C@@H](N)C12CC3CC(CC(C3)C1)C2 landed at 95

Quick note, inhibition for CC(N)C12CC3CC(CC(C3)C1)C2 (racemic) [RIMANTADINE] landed at 96

Quick note, inhibition for CC(C)(N)C12CC3CC(CC(C3)C1)C2 landed at 96

Quick note, inhibition for NC12CC3CC(CC(C3)C1)C2 [AMANTADINE] landed at 95
